pKi: −log10 of the molar value.
Assembled from different publications: pKi for Tyrosine-protein kinase JAK3 (Homo sapiens).

Solved cases (3 shown):
[[record]]
molecule = "O=C(NCC(F)(F)F)[C@H]1C[C@H](O)CN1c1nc(-c2c[nH]c3ncccc23)ncc1F"
experimental_system = "Tyrosine-protein kinase JAK3 (Homo sapiens)"
result = "≤ 7.00"

[[record]]
molecule = "CC(Oc1cc(-c2c(N)nn3cccnc23)ncn1)c1ccc(F)cc1 (stereo not drawn)"
experimental_system = "Tyrosine-protein kinase JAK3 (Homo sapiens)"
result = "7.00 to 8.00"

[[record]]
molecule = "CN1CCN(c2ncccc2-c2cnc3c(-c4ccccn4)c(N)nn3c2)CC1"
experimental_system = "Tyrosine-protein kinase JAK3 (Homo sapiens)"
result = "< 5.30"


Input: Param readout = pKi; param system = Tyrosine-protein kinase JAK3 (Homo sapiens); param query = `Cc1c[nH]c2ncnc(-c3cnn(CC(C)C)c3)c12` ; response: value
Output: 6.30 to 7.00

Input: Param readout = pKi; param system = Tyrosine-protein kinase JAK3 (Homo sapiens); param query = `CC(C)CNC(=O)c1cnc2c(-c3ccccn3)c(N)nn2c1` ; response: value
Output: < 5.30

Input: Param readout = pKi; param system = Tyrosine-protein kinase JAK3 (Homo sapiens); param query = `CNC(=O)c1cc(-c2nccc(N[C@@H](C(=O)NCC(F)(F)F)C(C)C)n2)c[nH]1` ; response: value
Output: 5.00 to 6.00

Input: Param readout = pKi; param system = Tyrosine-protein kinase JAK3 (Homo sapiens); param query = `CCN(C(=O)CC(C)C)c1nc(-c2ncnc3[nH]ccc23)cs1` ; response: value
Output: > 7.00

Input: Param readout = pKi; param system = Tyrosine-protein kinase JAK3 (Homo sapiens); param query = Oc1ccc(C2Nc3ccccc3-c3ccnc4[nH]cc2c34)cc1 (stereo not drawn) ; response: value
Output: ≥ 6.60

Input: Param readout = pKi; param system = Tyrosine-protein kinase JAK3 (Homo sapiens); param query = COc1cc(C2Nc3ccccc3-c3ccnc4[nH]cc2c34)c(Br)cc1O (stereo not drawn) ; response: value
Output: ≥ 6.60
